Target: Ubiquitin carboxyl-terminal hydrolase 28 (Homo sapiens, UniProt Q96RU2)
Sequence (Q96RU2 whole entry): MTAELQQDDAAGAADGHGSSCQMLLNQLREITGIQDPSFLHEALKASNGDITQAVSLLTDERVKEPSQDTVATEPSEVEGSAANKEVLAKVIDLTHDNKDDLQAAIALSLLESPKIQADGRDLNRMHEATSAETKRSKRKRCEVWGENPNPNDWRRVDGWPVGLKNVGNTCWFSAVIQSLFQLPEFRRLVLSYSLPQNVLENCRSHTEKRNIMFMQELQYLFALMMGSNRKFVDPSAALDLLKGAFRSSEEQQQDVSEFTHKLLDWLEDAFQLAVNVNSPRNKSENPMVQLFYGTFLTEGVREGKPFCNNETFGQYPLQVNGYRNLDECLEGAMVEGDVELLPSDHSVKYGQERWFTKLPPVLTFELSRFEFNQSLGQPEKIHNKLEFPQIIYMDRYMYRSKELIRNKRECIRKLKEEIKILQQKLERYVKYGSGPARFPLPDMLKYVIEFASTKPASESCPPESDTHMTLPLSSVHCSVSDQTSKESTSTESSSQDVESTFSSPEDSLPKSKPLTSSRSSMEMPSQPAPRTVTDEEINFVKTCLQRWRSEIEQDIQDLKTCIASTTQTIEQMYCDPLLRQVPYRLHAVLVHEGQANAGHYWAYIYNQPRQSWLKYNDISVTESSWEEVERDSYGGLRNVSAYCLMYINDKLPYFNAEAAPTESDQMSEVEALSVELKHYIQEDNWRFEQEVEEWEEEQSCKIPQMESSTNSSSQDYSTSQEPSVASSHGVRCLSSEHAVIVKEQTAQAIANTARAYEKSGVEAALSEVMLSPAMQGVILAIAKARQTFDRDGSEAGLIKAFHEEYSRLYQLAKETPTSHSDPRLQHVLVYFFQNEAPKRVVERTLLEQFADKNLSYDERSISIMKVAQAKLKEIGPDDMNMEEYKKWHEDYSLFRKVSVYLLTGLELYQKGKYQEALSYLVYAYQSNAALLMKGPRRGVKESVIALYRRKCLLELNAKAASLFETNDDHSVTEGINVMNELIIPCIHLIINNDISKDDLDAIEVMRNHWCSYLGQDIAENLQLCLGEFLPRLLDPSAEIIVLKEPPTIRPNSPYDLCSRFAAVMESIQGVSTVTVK
pIC50: −log10 of the molar value.
The entries below pair compounds with pIC50 values for Ubiquitin carboxyl-terminal hydrolase 28 (Homo sapiens, UniProt Q96RU2), as found in several publications.

As a guide, the following entries are already answered.
Compound: Cc1ccc2c(N)c(C(=O)NCCc3ccc(N4CCN[C@@H](C(C)C)C4)cc3)sc2n1
Endpoint result: 5.70 to 6.70

Compound: CS(=O)(=O)c1ccc(C(=O)Nc2ccc(Cl)c(-c3cccc(N)c3)c2)c(Cl)c1
Endpoint result: 4.96

Compound: CCCSc1nc(NCCN)c2nnn(Cc3ccc(Cl)cc3)c2n1
Endpoint result: 5.96

Compound: CN[C@@H]1CCN(c2ccc(CCNC(=O)c3sc4nc(C)ccc4c3N)cc2)C1
Endpoint result: 5.70 to 6.70

Compound: CS(=O)(=O)c1ccc(C(=O)Nc2ccc(Cl)c(-c3ccc(N)cc3)c2)c(Cl)c1
Endpoint result: 5.25

Compound: Cc1ccc2c(N)c(C(=O)NCCc3ccc(N4CCCNCC4)cc3)sc2n1
Endpoint result: 5.70 to 6.70

Compound: Cc1cccc(-c2cc(CCNC(=O)c3sc4nc(C)ccc4c3N)ccc2N2CCNCC2)c1
Endpoint result: 4.60 to 5.00

Compound: Cc1ccc2c(N)c(C(=O)NCCc3ccc(N4C[C@H]5CNC[C@H]5C4)cc3)sc2n1
Endpoint result: 5.70 to 6.70

Compound: Cc1ccc2c(N)c(C(=O)NCCc3ccc(N4CCNCC4)c(-c4ccccc4C)c3)sc2n1
Endpoint result: 5.70 to 6.70

Compound: Cc1ccc2c(N)c(C(=O)NCCc3ccc(N4CCNCC4)c(-c4ccc(Cl)cc4)c3)sc2n1
Endpoint result: 5.00 to 5.70

Problem: # pIC50 lookup, item Cc1cc(-c2cc(CCNC(=O)c3sc4nc(C)ccc4c3N)ccc2N2CCNCC2)ccn1
Result: 5.00 to 5.70

Problem: How about Cc1ccc2c(N)c(C(=O)NCCc3ccc(N4CCCC45CCCNC5)cc3)sc2n1 (stereo not given) ?
Result: > 6.70

Problem: // query: Cc1ccc2c(N)c(C(=O)NCCc3ccc(N4CCNCC4)c(-c4cncnc4)c3)sc2n1
Result: 5.70 to 6.70

Problem: Okay, and CN(C)c1ccc(-c2cc(NC(=O)c3ccc(S(C)(=O)=O)cc3Cl)ccc2Cl)cc1 ?
Result: 5.55

Problem: Let us now turn to Cc1ccc2c(N)c(C(=O)NCCc3ccc(N4CCN[C@H](C(C)C)C4)cc3)sc2n1
Result: > 6.70
